molecular target: Integrin alpha-L (Homo sapiens); assay: Inhibition of intercellular adhesion molecule-1 (ICAM-1) binding to recombinant LFA-1, range (10400-11300)
result type: IC50 (µM)
Lab book: enter the figure in µM, no units written.

Form: Entry = COc1ccccc1Sc1ccc(/C=C/C(=O)N2CCN(C(C)=O)CC2)cc1OC | System = Integrin alpha-L (Homo sapiens) | IC50 = ____
10.7

----------
Biological target: Integrin alpha-L (Homo sapiens, UniProt P20701)
Sequence (P20701 whole entry): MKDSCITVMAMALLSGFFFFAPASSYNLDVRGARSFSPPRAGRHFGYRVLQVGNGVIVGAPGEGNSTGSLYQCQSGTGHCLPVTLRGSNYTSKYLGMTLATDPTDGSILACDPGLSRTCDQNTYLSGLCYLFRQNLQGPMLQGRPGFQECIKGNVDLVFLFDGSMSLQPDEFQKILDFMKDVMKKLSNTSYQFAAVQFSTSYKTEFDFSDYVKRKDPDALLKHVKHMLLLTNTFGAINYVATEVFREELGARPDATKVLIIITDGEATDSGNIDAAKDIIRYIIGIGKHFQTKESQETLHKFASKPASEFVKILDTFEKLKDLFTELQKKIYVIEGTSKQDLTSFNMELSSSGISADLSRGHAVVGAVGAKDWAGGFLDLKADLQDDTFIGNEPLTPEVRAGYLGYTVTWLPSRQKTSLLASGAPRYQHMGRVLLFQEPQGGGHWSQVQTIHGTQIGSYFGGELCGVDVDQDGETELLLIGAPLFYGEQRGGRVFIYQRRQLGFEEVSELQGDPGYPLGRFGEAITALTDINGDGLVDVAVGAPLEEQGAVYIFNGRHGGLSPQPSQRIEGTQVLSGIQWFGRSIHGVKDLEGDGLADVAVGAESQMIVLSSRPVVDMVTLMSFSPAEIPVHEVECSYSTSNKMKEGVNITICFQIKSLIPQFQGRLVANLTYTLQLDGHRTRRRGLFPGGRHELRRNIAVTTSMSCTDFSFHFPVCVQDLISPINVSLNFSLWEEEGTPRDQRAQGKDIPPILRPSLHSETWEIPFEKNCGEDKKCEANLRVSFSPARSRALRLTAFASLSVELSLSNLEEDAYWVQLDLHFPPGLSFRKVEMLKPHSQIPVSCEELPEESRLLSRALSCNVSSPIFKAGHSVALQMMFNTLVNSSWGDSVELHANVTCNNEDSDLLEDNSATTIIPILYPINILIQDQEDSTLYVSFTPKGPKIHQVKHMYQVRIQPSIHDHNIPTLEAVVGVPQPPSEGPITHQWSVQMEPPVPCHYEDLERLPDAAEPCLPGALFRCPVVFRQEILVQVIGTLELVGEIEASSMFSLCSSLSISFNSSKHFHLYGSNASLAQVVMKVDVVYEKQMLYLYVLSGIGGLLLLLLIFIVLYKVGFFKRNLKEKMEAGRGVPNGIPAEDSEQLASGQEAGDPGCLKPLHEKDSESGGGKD
Experiment: Inhibition of intercellular adhesion molecule-1 (ICAM-1) binding to recombinant LFA-1, range (3600-5100)
result type: pIC50
Value format note: pIC50 is -log10 of concentration (mol/L); just state the number.

// pIC50 lookup, key: CC(=O)N1CCN(C(=O)/C=C/c2ccc(Sc3ccc(Cl)cc3Cl)cc2)CC1
5.37

Numbers sourced from ChEMBL document CHEMBL1134304.
